tested_target: IDH1-R132H (Homo sapiens, UniProt O75874, R132H)
Sequence (O75874 whole entry R132H): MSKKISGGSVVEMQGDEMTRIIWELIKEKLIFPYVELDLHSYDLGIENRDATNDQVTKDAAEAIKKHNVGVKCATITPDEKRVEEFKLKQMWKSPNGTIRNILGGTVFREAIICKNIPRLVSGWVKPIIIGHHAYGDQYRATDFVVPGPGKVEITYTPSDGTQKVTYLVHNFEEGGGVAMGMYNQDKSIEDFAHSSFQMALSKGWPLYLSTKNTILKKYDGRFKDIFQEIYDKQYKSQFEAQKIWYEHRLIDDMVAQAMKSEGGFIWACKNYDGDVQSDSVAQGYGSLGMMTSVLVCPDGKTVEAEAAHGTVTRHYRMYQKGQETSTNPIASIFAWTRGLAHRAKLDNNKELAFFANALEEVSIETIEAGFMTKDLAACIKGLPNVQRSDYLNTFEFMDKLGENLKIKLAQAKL
assay: Fluorescent determination of IDH1-R132H cell activity (2-HG in U87MGR132H cells)
applied_conditions: 2-HG inhibition in U87MGR132H cells transfected with IDH1-R132H mutant plasmid
property_label: log10 of IC50 (log10 of the value in nM)
Would you kindly interpret these values as log10 of IC50 expressed in nM?

Request: What value of log10 of IC50 has been reported for the following molecule? C[C@@H](Nc1nc(N[C@H](C)C(F)(F)F)nc(C2=C(F)C(O)C(F)CC2)n1)C(F)(F)F (stereo partly drawn) [Compound 269]
Response: 2.47

Request: And then OC1C(F)=C(c2nc(Nc3ccnc(C(F)(F)F)c3)nc(NC(C3CC3)C3CC3)n2)CCC1(F)F (stereo not drawn) [Compound 220] , what is it?
Response: 3.46

Request: Check [2H]C1(O)C=C(c2nc(N[C@H](C)C(F)(F)F)nc(N[C@H](C)C(F)(F)F)n2)CCC1(F)F (mixture of isomers) [Compound 282] too.
Response: 2.65

Request: Could you do the same for C[C@@H](Nc1nc(N[C@H](C)C(F)(F)F)nc(C2=C(F)C(O)C(F)CC2)n1)C(F)(F)F (single isomer, unassigned) [Compound 98] , please?
Response: 2.40

Request: Try the molecule OC1CCCC(c2nc(NC3CC(F)(F)C3)nc(NC3CC(F)(F)C3)n2)=C1F (stereo not drawn) [Compound 5]
Response: 2.94

Request: Entry C[C@@H](Nc1nc(N[C@@H]2CCC(F)(F)C2)nc(C2=C(F)C(O)C(F)CC2)n1)C(F)(F)F (single isomer, unassigned) [Compound 233] please
Response: 2.80

Request: // repeat for CCCNc1nc(N[C@H](C)C(F)(F)F)nc(C2=C(F)C(O)CCC2)n1 (stereo partly drawn) [Compound 81] and report
Response: 3.55

Request: Try the molecule CC(C)(C)ONc1nc(Nc2ccnc(C(F)(F)F)c2)nc(C2=C(F)C(O)CCC2)n1 (stereo not drawn) [Compound 71]
Response: 3.48

Request: How about this molecule: CC(C)CNc1nc(N[C@H](C)C(F)(F)F)nc(C2=CC(O)CCC2)n1 (mixture of isomers) [Compound 134]
Response: 3.39

Request: Let us now turn to OC1C(F)=C(c2nc(NC3CC(F)(F)C3)nc(NC3CC(F)(F)C3)n2)CCC1(F)F (stereo not drawn) [Compound 203]
Response: 2.87

Request: Another molecule to look at: C[C@@H](Nc1nc(NC2CC(F)(F)C2)nc(C2=C(F)C(O)CCCC2)n1)C(F)(F)F (stereo partly drawn) [Compound 40]
Response: 2.65

###

assay: Determination of solubility in sodium phosphate buffers
Assay type: physicochemical
applied_conditions: aqueous buffer, thermodynamic from solid; pH 7.4 sodium phosphate buffer; read-out: Solubility pH 7.4
property_label: log10(solubility at 1 h) (log10 of the value in µg/mL)
Base-10 log of solubility at 1 h, unit µg/mL.

Request: For OC1CCCCC(c2nc(NC3CC(F)(F)C3)nc(NC3CC(F)(F)C3)n2)=C1F (stereo not shown) , what is its reported log10(solubility at 1 h)?
Response: 1.79

Request: Here is the next compound: CC(C)Nc1nc(N[C@H](C)C(F)(F)F)nc(C2=C(F)C(O)CC(C)(C)C2)n1 (mixture of isomers)
Response: 1.93

Request: Further, for Nc1nc(N)nc(C2=C(F)C(O)C(F)(F)CC2)n1 (stereo not shown) ?
Response: 2.91

Request: Same lookup for CC(C)(C)ONc1nc(Nc2ccnc(C(F)(F)F)c2)nc(C2=C(F)C(O)CCC2)n1 (stereo not shown) , please.
Response: 1.74

Request: # repeat for C[C@@H](Nc1nc(N[C@H]2CCOC2)nc(C2=C(F)C(O)CCC2)n1)C(F)(F)F (mixture of isomers)
Response: 2.85

Request: Let us now turn to C[C@@H](Nc1nc(N[C@H](C)C(F)(F)F)nc(C2=C(F)C(O)C(F)CC2)n1)C(F)(F)F (single isomer, unassigned)
Response: 1.32
